- Test system: 186277-243-T-J2-PDC complex spheroid growth
- MEASUREMENT NOTES: Anticancer human tumor 186277-243-T-J2-PDC patient-derived colon adenocarcinoma cell line growth inhibition [AhR]
- DETAILS: second compound 0.316 µM; first compound 0.0316 µM; stronger effect = lower value

{"columns": ["MOLECULE", "viability, T/C"],
 "data": [
  ["O=C(c1cc(Cc2n[nH]c(=O)c3ccccc23)ccc1F)N1CCN(C(=O)C2CC2)CC1 + Cc1ccccc1N=Nc1ccc(NC(=O)c2ccnn2C)c(C)c1", "94%"],
  ["COc1ccc([C@@H](O)c2cc(-c3ncnc4cc(N5CCOCC5)ccc34)c(F)cc2Cl)nn1 + Cc1ccccc1N=Nc1ccc(NC(=O)c2ccnn2C)c(C)c1", "96.5%"],
  ["Cn1ncnc1C1c2n[nH]c(=O)c3cc(F)cc(c23)NC1c1ccc(F)cc1 (stereo not drawn) + CC(CO)NC(=O)c1cc(-c2ccc(Cl)cc2)nn(-c2cnn(C)c2)c1=O", "83%"]
]}

###

- Tested on: 186277-243-T-J2-PDC complex spheroid growth
- MEASUREMENT NOTES: Anticancer human tumor 186277-243-T-J2-PDC cell line growth inhibition [AhR];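 further: spheroids exposed to compounds for seven days before the viability read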
- DETAILS: curve of first compound; second compound 1 µM
pIC50: −log10 of the molar value.
MEASURED METRIC: pIC50

{"columns": ["COMPOUND", "MEASURED METRIC", "SIGN", "EXPERIMENTAL RESULT"],
 "data": [
  ["O=C(C=Cc1cccc(S(=O)(=O)Nc2ccccc2)c1)NO + Cc1ccccc1N=Nc1ccc(NC(=O)c2ccnn2C)c(C)c1", "pIC50", "=", 5.72],
  ["CC[C@@]1(O)C(=O)OCc2c1cc1n(c2=O)Cc2cc3c(CN(C)C)c(O)ccc3nc2-1 + Cc1cncc(-c2nc(NCCc3c[nH]c4ccccc34)c3ncn(C(C)C)c3n2)c1", "pIC50", "<", 7.00],
  ["Nc1ncn(C2CC(O)C(CO)S2)c(=O)n1 (stereo not drawn) + Cc1cncc(-c2nc(NCCc3c[nH]c4ccccc34)c3ncn(C(C)C)c3n2)c1", "pIC50", "<", 6.52],
  ["O=C(c1cc(Cc2n[nH]c(=O)c3ccccc23)ccc1F)N1CCN(C(=O)C2CC2)CC1 + Cc1cncc(-c2nc(NCCc3c[nH]c4ccccc34)c3ncn(C(C)C)c3n2)c1", "pIC50", "<", 5.00],
  ["CC[C@@]1(O)C(=O)OCc2c1cc1n(c2=O)Cc2cc3c(CN(C)C)c(O)ccc3nc2-1 + Cc1ccccc1N=Nc1ccc(NC(=O)c2ccnn2C)c(C)c1", "pIC50", "<", 7.00],
  ["CC[C@@]1(O)C(=O)OCc2c1cc1n(c2=O)Cc2cc3c(CN(C)C)c(O)ccc3nc2-1 + CC(CO)NC(=O)c1cc(-c2ccc(Cl)cc2)nn(-c2cnn(C)c2)c1=O", "pIC50", "=", 7.82],
  ["Cn1ncnc1C1c2n[nH]c(=O)c3cc(F)cc(c23)NC1c1ccc(F)cc1 (stereo not drawn) + Cc1ccccc1N=Nc1ccc(NC(=O)c2ccnn2C)c(C)c1", "pIC50", "<", 7.00],
  ["O=C(C=Cn1cnc(-c2cc(C(F)(F)F)cc(C(F)(F)F)c2)n1)NNc1cnccn1 + Cc1ccccc1N=Nc1ccc(NC(=O)c2ccnn2C)c(C)c1", "pIC50", "=", 6.27],
  ["O=C(C=Cc1cccc(S(=O)(=O)Nc2ccccc2)c1)NO + Cc1cncc(-c2nc(NCCc3c[nH]c4ccccc34)c3ncn(C(C)C)c3n2)c1", "pIC50", "=", 6.09],
  ["CCc1c2c(nc3ccc(O)cc13)-c1cc3c(c(=O)n1C2)COC(=O)[C@]3(O)CC + CC(CO)NC(=O)c1cc(-c2ccc(Cl)cc2)nn(-c2cnn(C)c2)c1=O", "pIC50", ">", 9.02],
  ["CC(C)CC(NC(=O)C(Cc1ccccc1)NC(=O)c1cnccn1)B(O)O (stereo not drawn) + Cc1cncc(-c2nc(NCCc3c[nH]c4ccccc34)c3ncn(C(C)C)c3n2)c1", "pIC50", "=", 7.79],
  ["CC1COCCN1c1cc(C2(S(C)(=N)=O)CC2)nc(-c2ccnc3[nH]ccc23)n1 (stereo not drawn) + Cc1ccccc1N=Nc1ccc(NC(=O)c2ccnn2C)c(C)c1", "pIC50", "=", 5.66],
  ["Nc1ncn(C2CC(O)C(CO)S2)c(=O)n1 (stereo not drawn) + CC(CO)NC(=O)c1cc(-c2ccc(Cl)cc2)nn(-c2cnn(C)c2)c1=O", "pIC50", "=", 6.88]
]}

###

The following compounds are listed with their measured viability, T/C values.
- System: 186277-243-T-J2-PDC complex spheroid growth
- MEASUREMENT NOTES: Anticancer human tumor 186277-243-T-J2-PDC cell line growth inhibition [AhR];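 further: spheroids exposed to compounds for seven days before the viability read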;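 on viability, T/C: luminescent signal used as a stand-in for viable cell amount; 100% = DMSO vehicle control wells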
- DETAILS: second compound 10 µM; first compound 0.00949 µM; stronger effect = lower value

{"columns": ["COMPOUND", "SYSTEM NAME", "UNITS TEXT", "viability, T/C"],
 "data": [
  ["CCN(c1cc(-c2ccc(CN3CCOCC3)cc2)cc(C(=O)NCc2c(C)cc(C)[nH]c2=O)c1C)C1CCOCC1 + CC(CO)NC(=O)c1cc(-c2ccc(Cl)cc2)nn(-c2cnn(C)c2)c1=O", "186277-243-T-J2-PDC complex spheroid growth", "%", 88.5],
  ["CC(C)CC(NC(=O)C(Cc1ccccc1)NC(=O)c1cnccn1)B(O)O (stereo not drawn) + Cc1cncc(-c2nc(NCCc3c[nH]c4ccccc34)c3ncn(C(C)C)c3n2)c1", "186277-243-T-J2-PDC complex spheroid growth", "%", 1.63],
  ["CCc1c2c(nc3ccc(O)cc13)-c1cc3c(c(=O)n1C2)COC(=O)[C@]3(O)CC + Cc1ccccc1N=Nc1ccc(NC(=O)c2ccnn2C)c(C)c1", "186277-243-T-J2-PDC complex spheroid growth", "%", 106]
]}

###

- Tested on: 186277-243-T-J2-PDC complex spheroid growth
- MEASUREMENT NOTES: Anticancer human tumor 186277-243-T-J2-PDC cell line growth inhibition [AhR];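 further: spheroids exposed to compounds for seven days before the viability read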;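 on viability, T/C: luminescent signal used as a stand-in for viable cell amount; 100% = DMSO vehicle control wells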
- DETAILS: second compound 3.16 µM; first compound 0.0316 µM; stronger effect = lower value
Rule: viability, T/C below 90% gives TRUE, anything at or above gives FALSE.

{"columns": ["MOLECULE", "ASSIGNED CATEGORY"],
 "data": [
  ["O=C(c1cc(Cc2n[nH]c(=O)c3ccccc23)ccc1F)N1CCN(C(=O)C2CC2)CC1 + Cc1ccccc1N=Nc1ccc(NC(=O)c2ccnn2C)c(C)c1", "FALSE"],
  ["Cn1ncnc1C1c2n[nH]c(=O)c3cc(F)cc(c23)NC1c1ccc(F)cc1 (stereo unspecified) + Cc1ccccc1N=Nc1ccc(NC(=O)c2ccnn2C)c(C)c1", "FALSE"],
  ["Nc1ccn(C2OC(CO)C(O)C2(F)F)c(=O)n1 (stereo unspecified) + Cc1ccccc1N=Nc1ccc(NC(=O)c2ccnn2C)c(C)c1", "TRUE"],
  ["CC(C)c1c(-c2ccccc2)nc2c(C#N)c[nH]n2c1=O + Cc1cncc(-c2nc(NCCc3c[nH]c4ccccc34)c3ncn(C(C)C)c3n2)c1", "FALSE"],
  ["COc1cccc2c1C(=O)c1c(O)c3c(c(O)c1C2=O)CC(O)(C(=O)CO)CC3OC1CC(N)C(O)C(C)O1 (stereo unspecified) + Cc1cncc(-c2nc(NCCc3c[nH]c4ccccc34)c3ncn(C(C)C)c3n2)c1", "TRUE"]
]}

###

compounds and their reported viability, T/C
- System: 186277-243-T-J2-PDC complex spheroid growth
- MEASUREMENT NOTES: Anticancer human tumor 186277-243-T-J2-PDC cell line growth inhibition [AhR];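 further: spheroids exposed to compounds for seven days before the viability read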;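 on viability, T/C: luminescent signal used as a stand-in for viable cell amount; 100% = DMSO vehicle control wells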
- DETAILS: second compound 0.1 µM; first compound 0.001 µM; stronger effect = lower value
MEASURED METRIC: viability, T/C (%)

{"columns": ["COMPOUND", "SYSTEM NAME", "MEASURED METRIC", "UNITS TEXT", "EXPERIMENTAL RESULT"],
 "data": [
  ["CC[C@@]1(O)C(=O)OCc2c1cc1n(c2=O)Cc2cc3c(CN(C)C)c(O)ccc3nc2-1 + Cc1ccccc1N=Nc1ccc(NC(=O)c2ccnn2C)c(C)c1", "186277-243-T-J2-PDC complex spheroid growth", "viability, T/C", "%", 113],
  ["Cn1ncnc1C1c2n[nH]c(=O)c3cc(F)cc(c23)NC1c1ccc(F)cc1 (stereo unspecified) + Cc1cncc(-c2nc(NCCc3c[nH]c4ccccc34)c3ncn(C(C)C)c3n2)c1", "186277-243-T-J2-PDC complex spheroid growth", "viability, T/C", "%", 83.9],
  ["Cn1ncnc1C1c2n[nH]c(=O)c3cc(F)cc(c23)NC1c1ccc(F)cc1 (stereo unspecified) + CC(CO)NC(=O)c1cc(-c2ccc(Cl)cc2)nn(-c2cnn(C)c2)c1=O", "186277-243-T-J2-PDC complex spheroid growth", "viability, T/C", "%", 99.3],
  ["CC[C@@]1(O)C(=O)OCc2c1cc1n(c2=O)Cc2cc3c(CN(C)C)c(O)ccc3nc2-1 + CC(CO)NC(=O)c1cc(-c2ccc(Cl)cc2)nn(-c2cnn(C)c2)c1=O", "186277-243-T-J2-PDC complex spheroid growth", "viability, T/C", "%", 101],
  ["Cn1ncnc1C1c2n[nH]c(=O)c3cc(F)cc(c23)NC1c1ccc(F)cc1 (stereo unspecified) + Cc1ccccc1N=Nc1ccc(NC(=O)c2ccnn2C)c(C)c1", "186277-243-T-J2-PDC complex spheroid growth", "viability, T/C", "%", 101],
  ["CC[C@@]1(O)C(=O)OCc2c1cc1n(c2=O)Cc2cc3c(CN(C)C)c(O)ccc3nc2-1 + Cc1cncc(-c2nc(NCCc3c[nH]c4ccccc34)c3ncn(C(C)C)c3n2)c1", "186277-243-T-J2-PDC complex spheroid growth", "viability, T/C", "%", 96.3]
]}
